B1: library; a variant is named by its letters at N, in order (parent)
chain: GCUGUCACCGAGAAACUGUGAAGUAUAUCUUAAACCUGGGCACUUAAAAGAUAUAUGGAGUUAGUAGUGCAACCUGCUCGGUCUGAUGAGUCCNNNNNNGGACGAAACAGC

Variants of: B1
Assay: FACS-Seq fitted mean relative fluorescence mCherry/BFP without ligand (log10 relative fluorescence); HEK293T; ligand: cyclic di-GMP (c-di-GMP-II aptamer); higher = higher reporter protein expression
Conditions: ligand present: no
Observable: FACS-Seq fitted mean (log10)
# print the numeric value only

Answered cases to consult:
GUACAA : -0.163
CUUUCU : -0.275
CGCAUG : -0.455
GCAGUA : -0.229
ACCUCC : 0.0782
UUGGCU : -0.121
AUGGUG : -0.341
GCUGAA : -0.497
GUUUGA : -0.499
UCUAAU : -0.491

As a next step, examine the variant that follows.
Q) Return reported FACS-Seq fitted mean (log10). Input variant: CGUUUU
A) -0.597
